Cited source for all entries: paper PMC10341786

# Test system: WNV
# assayText: microbe, parasite or virus in culture
# Type: cell-based, West Nile virus strain Strix nebulosa-12
# runConditions: West Nile virus, Vero, read-out: WNV EC50
reportedProperty: pEC50
// pEC50 is dimensionless: -log10 of concentration (M)

O=S(=O)(NC1=NOC2(CCCCCCC2)C1)c1cccnc1 | 4.96
O=S(=O)(c1ccc(F)cc1F)N(C1=NOC2CCCCCCC12)S(=O)(=O)c1ccc(F)cc1F (centres unmarked) | 4.92

What value of pEC50 on WNV does O=[N+]([O-])c1ccc(S(=O)(=O)N(C2=NOC3(CCCCCCC3)C2)S(=O)(=O)c2ccc([N+](=O)[O-])cc2)cc1 have?
5.28

Try this molecule next: O=S(=O)(NC1=NOC2(CCCCCCC2)C1)c1cccs1
5.21

Try this molecule next: CS(=O)(=O)NC1=NOC2(CCCCCCC2)C1
4.51

Try this molecule next: O=S(=O)(NC1=NOC2(CCCCCCC2)C1)c1ccc(F)cc1F
4.55

Try this molecule next: Cc1ccc(S(=O)(=O)N(C2=NOC3(CCCCCCC3)C2)S(=O)(=O)c2ccc(C)cc2)cc1
5.52

Try this molecule next: Cc1cc(C)c(S(=O)(=O)N(C2=NOC3CCCCCCC23)S(=O)(=O)c2c(C)cc(C)cc2C)c(C)c1 (centres unmarked)
5.40
